B1: STE20-related kinase adapter protein alpha (Homo sapiens), Q7RTN6-1 (parent)
chain: MSFLVSKPERIRRWVSEKFIVEGLRDLELFGEQPPGDTRRKTNDASSESIASFSKQEVMSSFLPEGGCYELLTVIGKGFEDLMTVNLARYKPTGEYVTVRRINLEACSNEMVTFLQGELHVSKLFNHPNIVPYRATFIADNELWVVTSFMAYGSAKDLICTHFMDGMNELAIAYILQGVLKALDYIHHMGYVHRSVKASHILISVDGKVYLSGLRSNLSMISHGQRQRVVHDFPKYSVKVLPWLSPEVLQQNLQGYDAKSDIYSVGITACELANGHVPFKDMPATQMLLEKLNGTVPCLLDTSTIPAEELTMSPSRSVANSGLSDSLTTSTPRPSNGDSPSHPYHRTFSPHFHHFVEQCLQRNPDARPSASTLLNHSFFKQIKRRASEALPELLRPVTPITNFEGSQSQDHSGIFGLVTNLEELEVDDWEF
partner: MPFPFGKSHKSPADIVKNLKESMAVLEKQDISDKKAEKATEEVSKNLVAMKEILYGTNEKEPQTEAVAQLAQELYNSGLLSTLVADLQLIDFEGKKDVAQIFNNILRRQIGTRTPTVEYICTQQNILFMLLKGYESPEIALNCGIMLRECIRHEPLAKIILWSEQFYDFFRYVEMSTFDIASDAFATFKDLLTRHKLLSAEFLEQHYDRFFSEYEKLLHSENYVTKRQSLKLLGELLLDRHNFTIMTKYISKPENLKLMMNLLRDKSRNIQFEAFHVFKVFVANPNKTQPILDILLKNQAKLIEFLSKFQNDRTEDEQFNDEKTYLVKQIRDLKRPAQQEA

# Variants of: B1
# conditionContext: with cab39_human CAB39, Q9Y376
endpointName: effect of a mutation on the interaction

Recorded effect of a mutation on the interaction, per entry:
I138Q disrupting interaction
N109A decreasing interaction
Y185F disrupting interaction
N126G decreasing interaction

Consider the record given below.
Specify effect of a mutation on the interaction for E105A and stop.
disrupting interaction
